# Tested on: SR leukemia
# EXPERIMENT DESCRIPTION: NCI tumour cell line growth inhibition, 48 h; in the data active = GI50 below about 0.43 µM; inactive = the rest
Respond with a class label; see active, inactive

Sample answers from the record:
INSERT INTO measurements (molecule, assigned_category) VALUES
  ('COc1cccc(-n2cc(-c3nc(Nc4cc(C)[nH]n4)c4ccccc4n3)nn2)c1', 'inactive'),
  ('Nc1nc2c(nnn2C2OC(CO)C(O)C2O)c(=O)[nH]1 (centres undefined)', 'inactive'),
  ('CN1CC[C@]2(c3cccc(O)c3)CC(=O)/C(=C/c3ccccc3)[C@H]1C2', 'inactive'),
  ('C=C1CC[C@@H]2[C@](C)(COC(C)=O)[C@H](OC(C)=O)CC[C@@]2(C)[C@@H]1CC(Nc1ccc(S(=O)(=O)Nc2cc(C)on2)cc1)C1=CCOC1=O (some centres undefined)', 'active'),
  ('NC1CCC(Nc2nc(NCc3cc(Cl)ccc3O)c3ncn(C4CCCC4)c3n2)CC1 (centres undefined)', 'active'),
  ('CCCCCCC/C=C/[C@H]1O[C@]2(O)C(=O)C=C3C[C@@H](O[C@@H]4O[C@H](CO)[C@@H](O)C(O)[C@@H]4O)C[C@@H]3[C@H]2C=C1C (some centres undefined)', 'inactive'),
  ('O=c1c2cccc(F)c2sc2c(N3CCNCC3)nc3ccccc3c12', 'inactive'),
  ('NCCCn1c2c(c3ccc([N+](=O)[O-])cc3c1=O)C(=O)c1cc(-c3ccccc3)ccc1-2', 'active');

# evaluate next
Q) Recorded test outcome, item C=C(C)C1CC=C(C)CC1 (centres undefined)
A) inactive

* * *

# Tested on: SF-295 CNS
# EXPERIMENT DESCRIPTION: NCI tumour cell line growth inhibition, 48 h
Below is a list of entries, each paired with its recorded TGI value.
Only the number, expressed in µM, is required.

Worked examples follow.
INSERT INTO measurements (mol_smiles, target_of_assay, units_symbol, obs_value) VALUES
  ('CCN(Cc1ccccc1Cl)c1ccc(CO)c(Cl)c1', 'SF-295 CNS', 'µM', 7.45),
  ('Cc1cccc2nc3cccc(C(=O)NCCNCCNCCNC(=O)c4cccc5nc6cccc(C)c6nc45)c3nc12', 'SF-295 CNS', 'µM', 1.11),
  ('COC(=O)C[CH2][Ge]([CH3])([CH3])[S]c1ccccc1', 'SF-295 CNS', 'µM', 62.3);

Read the next record carefully.
GET /values?item= "O=C1C(=O)c2ccccc2C(O)=C1CCCc1ccc(C2CCCC2)cc1" &system= SF-295 CNS returns TGI: 11

* * *

# Test system: HCT-15 colon
# EXPERIMENT DESCRIPTION: NCI tumour cell line growth inhibition, 48 h
# TGI annotations

Solved cases (3 shown):
INSERT INTO results (compound, target_of_assay, readout_kind, obs_value) VALUES
  ('COc1ccc(-c2nnc3n(Cc4ccccc4)c4ccccc4n3c2=O)cc1', 'HCT-15 colon', 'TGI', '> 100 µM'),
  ('CN1C(=O)C(C(N)=O)C2CC1(C)Oc1ccccc12 (stereo unspecified)', 'HCT-15 colon', 'TGI', '> 100 µM'),
  ('CC(C)COC(=O)OC(=O)c1ccc(N(C)Cc2cnc3nc(N)nc(N)c3n2)cc1', 'HCT-15 colon', 'TGI', '> 100 µM');

Query C=C1CCC2C3(C)COC(c4c(OC)cccc4OC)OC3CCC2(C)C1C/C=C1/C(=O)OCC1O (stereo unspecified) yields TGI of 7.87 µM

// sample "CC(=O)C=NCC(=O)O" , its TGI was > 100 µM

Lab book: TGI of "O=C(/C=C/c1ccccc1Cl)c1cccc2ccccc12" noted as 17.2 µM

What the record says about "COc1cccc2c3ccccc3c3nc[nH]c3c12" : TGI is 97.1 µM

Value of measured TGI for the entry "c1cc(CSSCc2ccncc2)ccn1" : > 100 µM
